system: COLO 205 colon; experiment: NCI-60 one-dose screen, 48 h (100 = growth as untreated, 0 = no growth, -100 = all killed); settings: 10 µM unless noted
About 83,000 compounds went through this panel and 20% of them were active in at least one assay; those are over-represented in the sample as a whole.
Exercise: for every item that follows, state its recorded growth.
# output: bare number, implied unit %

API: value(readout=growth, system=COLO 205 colon) for record S=c1[nH]nc(CSc2ncnc3c2c(-c2ccccc2)cn3-c2ccc(Cl)cc2)o1
99.1

API: value(readout=growth, system=COLO 205 colon) for record CC1(C)CC(C(=O)OCCCCCCCCCCC[P+](c2ccccc2)(c2ccccc2)c2ccccc2)C(C)(C)N1O (configuration not stated)
-79.9

API: value(readout=growth, system=COLO 205 colon) for record CCCCNC(=O)NS(=O)(=O)c1ccc(N2N=C(c3cc(C)ccc3C)CC2c2cc(OC)c(OC)c(OC)c2)cc1 (configuration not stated)
44.7

API: value(readout=growth, system=COLO 205 colon) for record CCOC(=O)/C=C/C(=O)[C@H](CC(C)C)NC(=O)[C@H](Cc1ccccc1)NC(=O)OCc1ccccc1
67.5

API: value(readout=growth, system=COLO 205 colon) for record CC(=O)O[C@H]1CC[C@]2(C)[C@H]3CC[C@@H]4[C@H]5[C@H](C(C)C)CC[C@]5(C(=O)OCC(CO)(CO)N=C(N)N)CC[C@@]4(C)[C@]3(C)CC[C@H]2C1(C)C
-89.9

API: value(readout=growth, system=COLO 205 colon) for record CC(C)c1c(C(=O)Nc2ccccc2)c(-c2ccccc2)c(-c2ccc(F)cc2)n1CC[C@@H]1CC=CC(=O)O1
-49.9

API: value(readout=growth, system=COLO 205 colon) for record CC/C=C\C[C@H](F)C/C=C1/C(=O)C=C[C@@H]1C/C=C\CCCC(=O)O
48.5

API: value(readout=growth, system=COLO 205 colon) for record COc1ccc(-c2nc(Nc3cc(C)[nH]n3)c3ccccc3n2)cc1
3.04

API: value(readout=growth, system=COLO 205 colon) for record O=C(/C=C/c1ccc(Cl)cc1)c1ccc(O)c(CN2CCN(c3cc4c(cc3F)c(=O)c(C(=O)O)cn4C3CC3)CC2)c1
136

API: value(readout=growth, system=COLO 205 colon) for record COC(=O)C12C3C(=O)N(c4ccc(OC)cc4)C(=O)C3C(c3cn(-c4ccccc4)nc3C)N1[C@H](c1cn(-c3ccccc3)nc1C)[C@@H]1C(=O)N(c3ccc(OC)cc3)C(=O)[C@@H]12 (some centres not stated)
112

API: value(readout=growth, system=COLO 205 colon) for record C=C1CCC2C3(C)COC(c4cccc(Cl)c4)OC3CCC2(C)C1/C=C/C1=CCOC1=O (configuration not stated)
106

API: value(readout=growth, system=COLO 205 colon) for record COc1ccc2nc3cc(Cl)ccc3c(N3CCN(c4nccc(Nc5ccc(Cl)cc5)n4)CC3)c2c1
95.7

API: value(readout=growth, system=COLO 205 colon) for record COc1ccc(CNc2nccnn2)cc1
95

API: value(readout=growth, system=COLO 205 colon) for record COc1ccc(C(=O)c2sc3nc4c(c(C(F)(F)F)c3c2N)CN(C(C)=O)CC4)cc1OC
92.4

API: value(readout=growth, system=COLO 205 colon) for record C=CC[N+]1(CCO)CCN=C1CCCCCCCCCCCCC (configuration not stated)
-91.4

API: value(readout=growth, system=COLO 205 colon) for record CC1=CC(=O)CC(C)(C)[C@@]1(O)/C=C/[C@@H](C)O
110

API: value(readout=growth, system=COLO 205 colon) for record O=C1c2cc3c(cc2-c2c1c1cc(F)c(F)cc1c(=O)n2C[C@H](O)CO)OCO3
-17.9
